Target: Streptavidin (Streptomyces avidinii)
Experiment: streptavidin binders on small-molecule microarray, primary screen, artefact control for SMM compound annotation, biophysical, 635/667 nm fluorescence (AID 1147);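 also: signal reflects streptavidin binding to arrayed compounds as a control protein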
Settings: streptavidin binding, higher = more signal
# maps each entry to its composite z-score
Observable: composite z-score

query_smiles=C=C(C(=O)CC[C@H](OC(C)=O)c1ccc(CO)o1)C(C)C assay_result=-0.469
query_smiles=NCCCCCCNC(=O)[C@@H]1C[C@@H]2C(=O)N[C@@H](Cc3ccccc3)C(=O)N2[C@@H]1c1ccc(O)cc1 assay_result=0.91
query_smiles=CC(C)C(=C=CC[C@H](O)c1ccc(OCCO)cc1)C[C@H](O)COCc1ccccc1 assay_result=0.192
query_smiles=C=CCNC(=O)[C@H]1[C@@H]2C(=O)O[C@@H](c3ccccc3)[C@@H](c3ccccc3)N2[C@@H](c2ccc(OCCO)cc2)[C@]12C(=O)Nc1ccc(C#CCCO)cc12 assay_result=-0.0494

====

Experiment: MM1S cell viability effects, profiling panel, calcein-AM fluorescence, 48 h, basal (AID 1165);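 also: viability of MM1S multiple myeloma cells under basal unstimulated conditions; test concentration not given here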
Conditions: higher = more signal
// label = T if z-score is not less than -0.03, otherwise F

compound=Cc1ccc(N2C(=O)c3ccccc3[C@](C)(C(=O)NC3CC3)[C@@H]2c2ccc(CO)cc2)nc1 group=T
compound=COCCCNC(=O)[C@@]1(Cc2ccccc2)N=C(c2ccc(OCCCO)cc2)O[C@H]1c1ccccc1N=[N+]=[N-] group=F
compound=CC(C)(C)OC(=O)CC[C@@]1(C(=O)N2CCOCC2)N=C(c2ccc(OCCCO)cc2)O[C@@H]1c1ccccc1 group=T
compound=C=C(/C(=C/C[C@H](OC(=O)c1ccncc1)c1cccc(OCCO)c1)c1cc(C(=O)OC)ccc1OC)C(C)C group=T
compound="COC(=O)C1=CC(c2ccc(CO)cc2)=CC(C2CC2)N(C)C=C1C(=O)OC (stereo unspecified)" group=T
compound=COCCOC(=O)N1C(=O)[C@@]2(c3cc(C#CCNC(N)=O)ccc31)[C@H](c1ccccc1OCCO)N1[C@H](c3ccccc3)[C@H](c3ccccc3)OC(=O)[C@H]1[C@@H]2C(=O)Nc1nc2ccccc2s1 group=F
compound=CCCNC(=O)[C@@H]1c2ccccc2C(=O)N(Cc2cc(C(F)(F)F)cc(C(F)(F)F)c2)[C@H]1c1ccc(CO)cc1 group=F
compound="C=C1C=C(Br)C2(OCCCO2)[C@H]2OC12 (stereo partly specified)" group=T
compound="C=CCC(OC(C)=O)[C@@H]1[C@@H](N(Cc2ccc(-c3cccc(C(F)(F)F)c3)o2)C(=O)c2ccc(-c3ccccc3)cc2)c2cc(OCCCO)ccc2N1C(=O)Cc1ccc(OC)cc1 (stereo partly specified)" group=T
compound=C=C(C1=CCN(S(=O)(=O)c2ccc(C)cc2)C1)[C@@H](OC(C)=O)[C@@H]1CCCN1S(=O)(=O)c1ccccc1[N+](=O)[O-] group=F
compound=CCCCC(=C=CC[C@H](O)c1cccc(OCCO)c1)CCO group=F
compound="COC(=O)C1=CC(c2ccc(CO)cc2)=CC(c2cccs2)N(C)C=C1C(=O)OC (stereo unspecified)" group=F
compound="CC(C)N1CC=CC23O[C@@H]4/C=C\\CCCOC(=O)C4[C@H]2C(=O)N(CCCO)[C@@H]3C1=O (stereo partly specified)" group=T
compound=C=C(COC)/C(=C/C[C@H](OC(C)=O)c1ccc(CO)o1)c1cnc2ccccc2c1 group=F
compound=O=C(N1CCCCC1)[C@@]1(Cc2ccccc2)N=C(c2ccc(OCCCO)cc2)O[C@H]1c1ccccc1 group=F
compound=CCOC(=O)C[C@H]1[C@H](OC(=O)Cc2ccc3c(c2)OCO3)[C@@H](NC(=O)c2ccc3ccccc3c2)c2cc(OCCCO)ccc2N1C(=O)c1ccc2ccccc2n1 group=F
